SYSTEM UNDER TEST: human full-length glucocorticoid receptor (Homo sapiens, UniProt P04150)
Construct: recombinantly expressed human full-length glucocorticoid receptor; purchased PanVera Co., Madison, Wis; P2816
Sequence (P04150 whole entry): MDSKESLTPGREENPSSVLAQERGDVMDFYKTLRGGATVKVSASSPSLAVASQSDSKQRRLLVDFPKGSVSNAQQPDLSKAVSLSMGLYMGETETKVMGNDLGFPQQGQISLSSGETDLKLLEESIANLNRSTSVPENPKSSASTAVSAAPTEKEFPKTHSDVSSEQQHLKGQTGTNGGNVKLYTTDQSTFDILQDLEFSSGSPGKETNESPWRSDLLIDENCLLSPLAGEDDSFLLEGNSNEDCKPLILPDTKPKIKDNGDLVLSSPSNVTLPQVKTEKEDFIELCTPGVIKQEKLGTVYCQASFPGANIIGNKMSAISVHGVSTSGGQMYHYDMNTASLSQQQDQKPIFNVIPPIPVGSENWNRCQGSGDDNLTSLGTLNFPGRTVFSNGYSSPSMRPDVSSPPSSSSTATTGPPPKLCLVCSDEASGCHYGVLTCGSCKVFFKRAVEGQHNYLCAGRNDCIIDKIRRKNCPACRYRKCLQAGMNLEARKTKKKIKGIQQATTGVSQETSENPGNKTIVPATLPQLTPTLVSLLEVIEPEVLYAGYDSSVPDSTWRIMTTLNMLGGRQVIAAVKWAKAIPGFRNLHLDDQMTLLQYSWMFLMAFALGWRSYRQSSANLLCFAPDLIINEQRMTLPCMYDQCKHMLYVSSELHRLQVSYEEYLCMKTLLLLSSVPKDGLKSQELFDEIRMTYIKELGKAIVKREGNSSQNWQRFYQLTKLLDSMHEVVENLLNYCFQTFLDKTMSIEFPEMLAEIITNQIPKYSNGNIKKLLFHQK
ASSAY OVERVIEW: Glucocorticoid Receptor Binding Assay (II), fluorescence polarization competitor kit (Fluormone GS1)
SETTINGS: cell lysate with recombinant human full-length GR
MEASUREMENT TYPE: Ki (nM)

COMPOUND	Ki (nM)
CC(C)CC(c1ccc2c(cnn2-c2ccc(F)cc2)c1)C(C)(C)CNC(=O)NC(C)(C)CN1CCCCC1 (centres unmarked) [Example 32]	452
CC(C)(C(=O)C(F)(F)F)C(c1ccccc1)c1ccc2c(cnn2-c2ccc(F)cc2)c1 (centres unmarked) [Example 131]	20
CC(=O)NCC(C)(C)[C@H](c1ccccc1)c1ccc2c(cnn2-c2ccc(F)cc2)c1 [Example 22]	17
CC(C)CC(c1ccc2c(cnn2-c2ccc(F)cc2)c1)C(C)(C)CNC(=O)OCC(F)(F)F (centres unmarked) [Example 60]	24

[a] CC(C)(CNC(=O)C(=O)O)[C@H](c1ccccc1)c1ccc2c(cnn2-c2ccc(F)cc2)c1 [Example 24]
[b] Cn1ncc2cc([C@H](c3ccccc3)C(C)(C)CNC(=O)CC(F)(F)F)ccc21 [Example 84]
[c] CC(C)n1ncc2cc([C@H](c3ccccc3)C(C)(C)CNS(=O)(=O)CC(F)(F)F)ccc21 [Example 87]
[d] CC(C)(CNC(=O)NCC(F)(F)F)[C@@H](c1ccccc1)c1ccc2c(cnn2-c2ccc(F)cc2)c1 [Example 8]
Rank the items in ascending order with respect to Ki. API: response body holds the labels in the requested order.
d, c, b, a
(d: 9 nM, c: 33 nM, b: 115 nM, a: 351 nM)

---

SYSTEM UNDER TEST: human full-length glucocorticoid receptor (Homo sapiens)
Construct: recombinantly expressed human full-length glucocorticoid receptor; purchased PanVera Co., Madison, Wis; P2816
ASSAY OVERVIEW: Glucocorticoid Receptor Binding Assay (II), fluorescence polarization competitor kit (Fluormone GS1)
SETTINGS: cell lysate with recombinant human full-length GR
MEASUREMENT TYPE: Ki (nM)

Consider the reported Ki for these molecules:
MOLECULE	MEASURE UNIT	Ki
CC(C)CC(c1ccc2c(cnn2-c2ccc(F)cc2)c1)C(C)(C)CNC(=O)N1CCCC(C)(C)C1 (stereo not shown)	nM	27
CC(C)CC(c1ccc2c(cnn2-c2ccc(F)cc2)c1)C(C)(C)CNC(=O)NC(C)(C)CN1CCOCC1 (stereo not shown)	nM	74
O=S(=O)(CC(F)(F)F)NCCC(c1ccccc1)c1ccc2c(cnn2-c2ccc(F)cc2)c1 (stereo not shown)	nM	21
CC(C)S(=O)(=O)NCC(C)(C)[C@@H](c1ccccc1)c1ccc2c(cnn2-c2ccc(F)cc2)c1	nM	6.1
CC(C)(C(=O)C1CC1)C(c1ccccc1)c1ccc2c(cnn2-c2ccc(F)cc2)c1 (stereo not shown)	nM	12

[I] CC(C)CC(c1ccc2c(cnn2-c2ccc(F)cc2)c1)C(C)(C)CNC(=O)CC(F)(F)F (stereo not shown) [Example 59A]
[II] CC(C)(CNC(=O)C(F)(F)C(F)(F)F)[C@@H](c1ccccc1)c1ccc2c(cnn2-c2ccc(F)cc2)c1
[III] CC(C)(CNS(=O)(=O)CC(F)(F)F)[C@@H](c1ccccc1)c1ccc2[nH]ncc2c1 [(S)-83]
[IV] O=C(CC(F)(F)F)NCC1CC1(c1ccccc1)c1ccc2c(cnn2-c2ccc(F)cc2)c1 (stereo not shown)
[V] CC(C)(C(c1ccccc1)c1ccc2c(cnn2-c2ccc(F)cc2)c1)C(C)(O)C(F)(F)F (mixture of isomers)
Please rank these molecules by Ki in descending order. API: response body holds the labels in the requested order.
IV, III, V, II, I
(IV: 86 nM, III: 34 nM, V: 16 nM, II: 11 nM, I: 6.9 nM)

[1] CC(C)(C(c1ccccc1)c1ccc2c(cnn2-c2ccc(F)cc2)c1)C(O)(c1ccccc1)C(F)(F)F (stereo not shown)
[2] CC(C)(CNC(=O)C(F)(F)F)[C@H](c1ccccc1)c1ccc2c(cnn2-c2ccc(F)cc2)c1 [(R)-16]
[3] CC(C)(C(O)c1cccs1)C(c1ccccc1)c1ccc2c(cnn2-c2ccc(F)cc2)c1 (stereo not shown)
[4] CC(C)CC(c1ccc2c(cnn2-c2ccc(F)cc2)c1)C(C)(C)CNC(=O)NC(C)(C)C (stereo not shown)
Please rank these molecules by Ki in descending order. API: response body holds the labels in the requested order.
3, 1, 2, 4
(3: 71 nM, 1: 26 nM, 2: 7.4 nM, 4: 4.9 nM)

[P] CC(C)(CNS(C)(=O)=O)[C@@H](c1ccccc1)c1ccc2c(cnn2-c2ccc(F)cc2)c1
[Q] CC(C)(CNC(=O)C(F)(F)F)C(c1ccccc1)c1ccc2c(cnn2C2CCCCCC2)c1 (stereo not shown)
Hello, I am sorting some records. Could you say if P or Q has the smaller Ki value? Could you answer with the label of the item you picked?
P
